molecular target: FLuc-C-HiBiT (Photinus pyralis); construct: firefly luciferase with C-terminal HiBiT tag, E. coli expressed; test: biochemical; settings: enzyme activity, 10 uM ATP; read-out: IC50 or SDR50 (mM) / FLuc E
Known log10 of IC50 of a selection of compounds
log10 IC50, µM

Use these answered entries as a reference point.
Cc1ccccc1-c1noc(-c2ccc(NC(C)c3cnn(C)c3)nc2)n1 (centres unmarked): 0.00
CCCN1CCNc2cc(Nc3ccccc3)ncc2C1: 1.40
Cc1ccc(C(=O)Nc2cccc(C(=O)O)c2)cc1[S+](=O)([O-])N1CCCC1: -1.06
COc1ccc(-c2cc3c(=O)n(CCNC(=O)Cc4cccs4)ccn3n2)cc1: 1.00
O=C(NCC1CCCN(C(=O)N2CCCC2)C1)c1ccc(-c2ccccc2)cc1 (centres unmarked): 1.09

## Input Which log10 of IC50 is listed for O=C(NC1CCN(c2cc(-c3ccc(F)cc3)n[nH]2)C1)c1cc2ccccc2[nH]1 (centres unmarked) ?
## Output 0.80

## Input I would be grateful if you could share the reported log10 of IC50 for CN(C)c1cccc(C(=O)Nc2ccc(-c3nc4ccccc4s3)cc2)c1 .
## Output 0.94

## Input Field request: log10 of IC50 | item: Cc1ccc2nc(-c3ccc(/N=N/c4cc(S(=O)(=O)O)c5ccccc5c4O)cc3)sc2c1S(=O)(=O)O
## Output 1.09

## Input Reported log10 of IC50 for CCOc1ccc(-c2cc(CCCC(=O)NCCc3ccc(OC)c(OC)c3)no2)cc1 : what is it?
## Output 1.00

## Input Would you mind telling me what log10 of IC50 value was observed for COc1ccc(-c2cnc(Nc3ccccc3)c3c2CCO3)cn1 ?
## Output 1.26

---

Recorded SDR Ave Max Response for the following compounds
target: PKA-N-HiBiT (Homo sapiens); test: SDR assay, PKA-N-HiBiT; conditions: PKA-N-HiBiT qHTS, SDR assay; average maximal response
Note: the reply should be a number with no unit written.

O=C(Nc1c[nH]nc1-c1nc2ccc(CN3CCOCC3)cc2[nH]1)NC1CC1: 67.79
CCN(CC)CCOc1ccc(Nc2ncc3cc(-c4c(Cl)cccc4Cl)c(=O)n(C)c3n2)cc1.Cl.Cl.O [PD-166285 hydrate]: -22.35
Cc1cc(O)c2c(c1)C(=O)c1cc(O)cc(O)c1C2=O: -14.68
Cn1sc(=O)n(Cc2ccccc2)c1=O: 1.44
Cc1ccc(C(=O)Nc2ccc(Oc3cc4cnn(C)c4cc3-c3cn[nH]c3)c(F)c2)c(=O)n1-c1ccc(F)cc1: 8.78

## Input Any idea what its SDR Ave Max Response is? The compound is Cc1nc2ccc(-n3ncc(C(=O)c4cc5ccccc5[nH]4)c3N)cc2[nH]1
## Output 4.01

## Input Entry under review: Cc1cc(F)ccc1-c1nc(NC(CO)CO)nc2c1ccc(=O)n2-c1c(F)cccc1F . Reported SDR Ave Max Response?
## Output 3.69

## Input Look at this compound and give its reported SDR Ave Max Response. CN1CCN(Cc2ccc(-c3cnc4[nH]cc(-c5ccc6[nH]ccc6c5)c4c3)cc2)CC1
## Output 20.11

---

molecular target: FLuc-C-NLuc (firefly luciferase) (Photinus pyralis, UniProt P08659, form not given/L550V); test: Firefly luciferase (FLuc) enzymatic luminescence assay, FLuc-C-NLuc; format: biochemical; parameters: key: % normalized; no enzyme control = 100% inhibition, DMSO = 0; conditions: Log[Compound], M -9.25
Sequence (P08659 2-550 L550V, form open): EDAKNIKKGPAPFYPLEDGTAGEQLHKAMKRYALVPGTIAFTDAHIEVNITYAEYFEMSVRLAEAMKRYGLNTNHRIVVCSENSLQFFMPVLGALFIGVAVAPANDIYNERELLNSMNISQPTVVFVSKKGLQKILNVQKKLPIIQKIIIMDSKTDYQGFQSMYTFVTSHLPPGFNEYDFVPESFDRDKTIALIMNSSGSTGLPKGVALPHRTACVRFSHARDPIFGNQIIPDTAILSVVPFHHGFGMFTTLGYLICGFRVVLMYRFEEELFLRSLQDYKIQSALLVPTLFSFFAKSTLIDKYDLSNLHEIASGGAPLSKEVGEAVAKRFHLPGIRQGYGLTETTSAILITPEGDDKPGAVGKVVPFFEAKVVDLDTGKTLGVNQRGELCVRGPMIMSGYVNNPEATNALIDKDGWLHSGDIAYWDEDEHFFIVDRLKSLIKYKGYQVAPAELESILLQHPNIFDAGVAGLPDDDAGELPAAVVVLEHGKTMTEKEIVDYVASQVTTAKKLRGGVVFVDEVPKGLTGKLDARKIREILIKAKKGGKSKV
Think of 2 as a floor: if Enz stands on it or above, it is 1; beneath it, 0.

# example entries with known answers
CC(NC(=O)C1CCN(C(=O)c2ncn3c2COC(c2ccc(F)cc2)C3)CC1)c1ccc(F)cc1 (centres unmarked): 0
O=C(Nc1cccc(F)c1)C1CCN(C(=O)c2ncn3c2COC(c2ccccc2)C3)CC1 (centres unmarked): 0
CC(CNC(=O)C1CCN(C(=O)c2ncn3c2COC(c2ccccc2)C3)CC1)c1ccccc1 (centres unmarked): 1

## Input Exam item: decide whether the reported Enz for CC1CCC(NC(=O)C2CCN(C(=O)c3ncn4c3COC(c3ccc(Cl)cc3)C4)CC2)CC1 (centres unmarked) is at least 2.
## Output 1

---

target: P. pyralis FLuc (Photinus pyralis); assay: FLuc enzymatic luminescence assay, P. pyralis FLuc; format: biochemical; conditions: FLuc enzymatic assay; Clade S follow-up
Sequence (P08659 whole entry): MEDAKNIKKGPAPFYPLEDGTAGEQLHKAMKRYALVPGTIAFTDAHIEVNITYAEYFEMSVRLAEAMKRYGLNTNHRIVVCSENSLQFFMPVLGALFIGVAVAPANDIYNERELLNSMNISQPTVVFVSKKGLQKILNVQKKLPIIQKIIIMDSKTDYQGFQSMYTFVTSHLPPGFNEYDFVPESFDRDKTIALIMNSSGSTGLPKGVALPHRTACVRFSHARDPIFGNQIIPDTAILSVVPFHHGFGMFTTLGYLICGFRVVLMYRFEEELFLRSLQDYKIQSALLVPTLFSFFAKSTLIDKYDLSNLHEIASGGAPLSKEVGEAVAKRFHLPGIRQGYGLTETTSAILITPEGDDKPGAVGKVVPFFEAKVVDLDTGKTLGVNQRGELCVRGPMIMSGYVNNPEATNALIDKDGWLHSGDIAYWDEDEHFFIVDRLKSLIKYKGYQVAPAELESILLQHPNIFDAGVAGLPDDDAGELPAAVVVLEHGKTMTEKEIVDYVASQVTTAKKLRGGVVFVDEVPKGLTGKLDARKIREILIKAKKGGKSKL
List of Efficacy (%) FLuc E values.
// return numeric value only (unit: %, not printed)

In the examples that follow, each entry is paired with its recorded Efficacy (%) FLuc E.
O=C(NCc1ccc(F)cc1F)C1CCN(C(=O)c2ncn3c2COC(c2ccccc2)C3)CC1 (stereo not shown) [NCGC00449785-01]: -69.49
O=C(NCc1cc(F)cc(F)c1)C1CCN(C(=O)c2ncn3c2COC(c2ccc(F)cc2)C3)CC1 (stereo not shown) [NCGC00449820-01]: -30.45
O=C(NC1CC1)C1CCN(C(=O)c2ncn3c2COC(c2ccc(F)cc2)C3)CC1 (stereo not shown) [NCGC00449806-01]: -31.66
O=C(NCCc1ccccc1)C1CCN(C(=O)c2ncn3c2COC(c2ccc(F)cc2)C3)CC1 (stereo not shown) [NCGC00449826-01]: -26.42
Cc1ccc(C2Cn3cnc(C(=O)N4CCC(C(=O)NCc5ccc(F)cc5)CC4)c3CO2)cc1 (stereo not shown) [NCGC00449889-01]: -57.95

## Input Which measured Efficacy (%) FLuc E belongs to COc1ccc(C2Cn3cnc(C(=O)N4CCC(C(=O)NCc5ccccc5)CC4)c3CO2)cc1 (stereo not shown) [NCGC00449865-01] , tested on P. pyralis FLuc (Photinus pyralis)?
## Output 0.00

## Input Look up Efficacy (%) FLuc E with P. pyralis FLuc (Photinus pyralis) for this compound: COc1ccc(C2Cn3cnc(C(=O)N4CCC(C(=O)NCC(C)C)CC4)c3CO2)cc1 (stereo not shown) [NCGC00449858-01]
## Output -13.26

## Input Find the measured Efficacy (%) FLuc E: item Cc1ccc(C2Cn3cnc(C(=O)N4CCC(C(=O)NC5CCCCC5)CC4)c3CO2)cc1 (stereo not shown) [NCGC00449882-01] , target or system P. pyralis FLuc (Photinus pyralis).
## Output -33.56

## Input Reported Efficacy (%) FLuc E for P. pyralis FLuc (Photinus pyralis), given O=C(NC1CCCCCCC1)C1CCN(C(=O)c2ncn3c2COC(c2ccc(F)cc2)C3)CC1 (stereo not shown) [NCGC00449810-01] ?
## Output -21.88

## Input Provide the documented Efficacy (%) FLuc E with P. pyralis FLuc (Photinus pyralis) as the system for COc1cccc(CNC(=O)C2CCN(C(=O)c3ncn4c3COC(c3ccccc3)C4)CC2)c1 (stereo not shown) [NCGC00449777-01]
## Output -78.20

---

biological target: FLuc-C-HiBiT (Photinus pyralis, UniProt P08659); construct: firefly luciferase with C-terminal HiBiT tag, E. coli expressed; assay: biochemical; conditions: enzyme activity, 10 uM ATP; read-out: IC50 or SDR50 (mM) / FLuc E
One threshold, 0.006 mM, splits the recorded IC50 values: lower ones are 1, equal or higher ones are 0.

Solved cases (5 shown):
COc1cc(C(=O)Nc2cc(C)c(O)c(-c3nc4ccccc4s3)c2)cc(OC)c1OC: 0
Cc1ccc(NC(=O)c2oc3ccc4c(c3c2C)C(=O)CC(C)(C)O4)c(C)c1: 0
CC(C)c1nc(C2Cc3ccccc3N2C(=O)NC2CCCC2)no1 (centres unmarked): 0
COc1ccc(NC(=O)/C(C#N)=C/c2ccc(C)o2)cc1: 0
Cc1ccc(NC(=O)N2CCC(CCNC(=O)C3CC3)CC2)cc1: 0

## Input A record lists CC(=O)NCCNC(=O)c1ccc2c(=O)n(CCc3ccccc3)c(=O)[nH]c2c1 . Is its IC50 below 0.006 mM?
## Output 1

## Input Lab note: confirm whether the reported IC50 for this compound is below 0.006 mM, equality not counting. compound: CCOc1cccc(CNC(=O)C2CCN(C(=O)c3ncn4c3COC(c3ccccc3)C4)CC2)c1 (centres unmarked)
## Output 0

## Input Is it true that IC50 reported for O=C(c1cc2ccc3cccnc3c2[nH]1)N1CCCCC1 is less than 0.006 mM?
## Output 1

---

target: FLuc-C-HiBiT (firefly luciferase) (Photinus pyralis, UniProt P08659, form not given/L550V); assay: Firefly luciferase (FLuc) enzymatic luminescence assay, FLuc-C-HiBiT; type: biochemical; design: key: % normalized; no enzyme control = 100% inhibition, DMSO = 0; details: 10 nM FLuc-C-HiBiT; normalized activity; Log [Compound], M -9.25
Sequence (P08659 2-550 L550V, form open): as the sequence (P08659 2-550 L550V, form open) above
The label y is reserved for FLuc Enzyme strictly under -0.2; n covers values equal to or above it.

COc1ccc(-c2nc(-c3ccc(C(=O)O)cc3)no2)cc1: n
CC1CCCN(c2ncnc3c2cnn3-c2ccccc2)C1 (centres unmarked): n
CNC(=O)c1cccc2c1CCN2C(=O)Nc1ccc(C)cc1: y
Fc1ccc(-c2cn3cc(Cc4ccccc4)sc3n2)cc1: n

## Input # check: FLuc Enzyme < -0.2 for O=C(O)CCSc1nnc(-c2ccc(Cl)cc2Cl)o1
## Output n

## Input For this compound, is FLuc Enzyme lower than -0.2? Cc1ccc(-n2ncc3c(N4CCCCCC4)ncnc32)cc1
## Output y

## Input # TODO verify FLuc Enzyme < -0.2 strictly for this compound: CC(CNC(=O)C1CCN(C(=O)c2ncn3c2COC(c2ccccc2)C3)CC1)c1ccccc1 (centres unmarked)
## Output n
